- EXPERIMENT DESCRIPTION: A CellTox Green Cytotoxicity Assay to monitor cytotoxicity in HEK293 cells - 16 hour (AID 1224888); further: nearly all actives have a fitted effect of over 35% in size
- CONDITION SET: CellTox Green fluorescence; series mostly up to 76.8 µM
Records with an inconclusive call do not appear. The source made the active and inactive calls. The call rests on the fitted dose curve; in most records, active means well fitted activation curve with a large enough effect in the repeat runs; inconclusive means weak or mixed curves; inactive means flat fitted curve, though single readings scatter.
Would you mind answering with one of these outcomes? Yes for active, No for inactive

CCC(N)(CO)CO: No

Give the logged outcome of this assay for the following compound: Cc1c(C)c2c(c(C)c1O)CCC(C)(COc1ccc(CC3SC(=O)NC3=O)cc1)O2 (stereo unspecified)
No

Entry CCCC1O[C@@H]2C[C@H]3[C@@H]4CCC5=CC(=O)C=C[C@]5(C)[C@H]4[C@@H](O)C[C@]3(C)[C@]2(C(=O)CO)O1 (stereo partly specified) : call = ?
No

# lookup: test call for "CCCCCOC(=O)CCCC"
No
